# tested system: T1, hIL2-DM-his (human, UniProt P60568 21-153)
# T1 construct: expressed in ExpiCHO-S cells, nickel-column purified; also called hIL-2 mutein containing two point mutations K64G and N90R (with a his-tag); not shown: his-tag
# T1 sequence (P60568 21-153 K84G/N110R): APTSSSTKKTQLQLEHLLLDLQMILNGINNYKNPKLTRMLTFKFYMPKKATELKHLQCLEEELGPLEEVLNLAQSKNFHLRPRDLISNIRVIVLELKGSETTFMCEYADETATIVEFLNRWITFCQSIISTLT
# assay notes: BLI ForteBio, Ab on Protein A sensor
measured attribute: kon (M⁻¹ s⁻¹)
Respond with the bare value in M⁻¹ s⁻¹.

For the binder K2G10 (antibody, V domains shown) VH: QVQLVQSGAEVKKPGATVKISCKVSGDTITAYYMHWVRQAPGQGLEWIGRIDPDDDSTKYAENFKGRVTITADTSTDTAYMELSSLRSEDTAVYYCTTITFYYTRELRWFAYWGQGTLVTVSS VL: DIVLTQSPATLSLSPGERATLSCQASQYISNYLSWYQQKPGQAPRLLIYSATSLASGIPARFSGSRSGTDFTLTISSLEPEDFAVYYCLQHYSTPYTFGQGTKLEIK , what kon is on record? 429000

From here, focus on the item given below.
Which kon reading was recorded for the binder K3G2 (antibody, V domains shown) VH: QVQLVQSGAEVKKPGATVKISCKVSGDTITAYYMHWVRQAPGQGLEWIGRIDPEDDSTKYAENFKGRVTITADTSTDTAYMELSSLRSEDTAVYYCTTITFYYSRELRWFAYWGQGTLVTVSS VL: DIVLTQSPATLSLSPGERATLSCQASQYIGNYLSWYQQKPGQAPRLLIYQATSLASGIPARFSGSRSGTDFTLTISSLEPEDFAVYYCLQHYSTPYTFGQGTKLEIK ? 407000

Where do the numbers come from? From patent US20250346644A1.
